- protocolNotes: Metabolic stability of the compound in carboxylesterase 1 knockout mouse brain assessed as parent compound remaining at 10 uM measured after 1 hr in by UPLC analysis
- Type: ADME, tissue-based
recordedMetric: Stability (%)

>>> number("COc1cc(-c2nc(-c3ccccc3)c(-c3cccs3)[nH]2)cc(OC)c1OC(=O)C(C)(C)C")
93
>>> number("COc1cc(-c2nc(-c3cccs3)c(-c3ccccc3)[nH]2)cc(OC)c1O")
89
>>> number("CCCCCC(=O)Oc1c(OC)cc(-c2nc(-c3ccccc3)c(-c3cccs3)[nH]2)cc1OC")
63
>>> number("COc1cc(-c2nc(-c3ccccc3)c(-c3cccs3)[nH]2)cc(OC)c1OC(=O)OC(OC(=O)C(C)(C)C)c1ccccc1 (centres undefined)")
69
